- test_method_notes: Solubility assay (kinetic solubility, PBS pH 7)
- Type: physicochemical
- test_settings: pH 7, aqueous buffer, kinetic from dmso stock, pH 7, PBS; read-out: Solubility
observed_property: solubility kinetic (µM)
Answers are plain numbers, in µM.

Data request: Hello, please tell me recorded solubility kinetic for this one: CC(=O)N[C@@H](CCCCN=[N+]=[N-])C(=O)NCCC(=O)N[C@@H](CC(C)C)C(=O)N[C@@H](CCC(=O)O)C(=O)N[C@@H](Cc1ccccc1)C(=O)N[C@]1(C)CCCCCCC=CCCC[C@@](C)(C(=O)N[C@@H](CO)C(=O)N[C@@H](C)C(=O)N[C@@H](C)C(N)=O)NC(=O)[C@H](CC2CCC2)NC(=O)[C@H](CCC(N)=O)NC(=O)[C@H](C)NC(=O)[C@H](Cc2c[nH]c3ccccc23)NC(=O)[C@H](Cc2ccc(O)cc2)NC(=O)[C@H](CCC(=O)O)NC1=O
Data returned: 102
